measurement.notes: protease stability score; higher = more stable; yeast display proteolysis, trypsin and chymotrypsin;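 further: relative to predicted unfolded state with 0 unfolded-like and 1 meaning tenfold more protease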
result.type: protease stability score

>>> df
                             record_sequence  value_observed
 0  REEEDNAEKFWEEFSKSLLTGDEDHMEELADPNARMRINGREKVGREEVRKELSHLFTHIRLKSIHLKDFKFFDGRLDIDGSLDGHINGKRREIEVHVHLWKVNGRWTLETLKIN            1.17
 1  DHLEDDLDHYIRVLIKSWQTGDEELTEKLIDPRVRVEVGDKEFHGRKIFSEIAVHWRIKHHTIEHINTVGDKATIHSHVVLHFDGREITTTTIYFIEKVNGKWLLKSMHIQ             2.5
 2  DEHEEQIEEFWRITVDQWMTGNEELIETYLDPNARVDINGKQTHGREQVTRLMLREMKHMRIKSIKLRRVRIVDGRVDLDGTLHGEVNGREFVLESHVHAEKFDGRWLIRTIKVN            2.23
 3  TEEDEHLYEYLESLFHHQRTGDEDKYERLLDPHARLDINGVDVIGMERVVHQWHEHWRRYKNMRIHFRHYEIKVFNGRAHLRIEGHMEYGDKKSEVELLFIAIKINGRWVVKQVHITVH            1.82
 4  SEEEKLRKSLVELILHALHTGDWERLTRLLDPHVRWDQGDKVFHGREDFKRAWTELGVDHFQLRHIEMQGDKLHIKGEMHVNGRTIHVDLDIEIINGRIEHHRVDTK            1.35
 5  DEDEERMHWMVEVLLRMLETGNEEIVKRLVDPNARVHTEDHSSMGREEFSRFMLELAKRFDVFHDVELKHVEVQGEKIILDGKFHIEVNGRRNYLDIELIIIKIDGRWKIEEVRFH            1.25
 6  SEHEEDFKKATHEILEIWETGDEHRMSEYLDPNTRLSIDGKNIHGREKVEEILRRHWERLGIDHLRIKDLRVHTIDGRMHLDILVRFHYNGVTIDVHLHFNLIKIDGKWYIRSILEIDR           0.418
 7  DEEHEINRRIAEWWLHSVKTGDEESIENNADPNTRIVVNGVHFHGMEESHKWLHEFLRRFKNATLEIHSMEVINGVTHIHGTLVQGDKRIRVHIHVHVINGRIHTISHEHR            1.27
 8  DEHEQFLRDIAIILIHAHLTGDWKRLEEMLDPNVRFEIDINGRSIEQHGRELYLRWVRKIHNEIWFRIEIEDISVINGRASVKVRLDLNVGDKVLHTRIHIEVVVIDGVLRSESIRVR            2.69
 9  DELEQWVKHALEIWVRSLHTGDEDNLSELVDPNVRIDVNGQELHGRELVLHFLSHMRVHIIITRDREIQGNKAIMHLEVHHHQGDKEIHFRFDLIFHKYDGRWRLTEIRIE            1.03
10  SEEEHELDHIAKEFLRVYLTGDEDELRKLMDPNARVDINGREMIGMELILKDLRDRLEHLGIKHSHITIREVQNFDGQIHIRGHIRIEIGNKRLEFDSRIIMHVIDGRLRSFHVIFI            1.92
11  NEDDHIMEELTRIFIQNLRTGNEEEWAKYADPDTRLDFNGVDIIGRESILHWLKHMLTELRFTKIIFHHINAVNGRIHLDVEQHVEVGDKSQTIRSEIHIRVVNGVIKREYYRYK           0.092
12  DEKEEILRQIMELMLRLLLTGDEDRLTELIDPNVRVVFEGRTYHGMDEVTELWKEIRIDSFRFRDVKNVGDKARLHGEQKVRVGNYSHEHKSEYQLFVVNGRAKSLEIRWH            1.31
13  REEEKKLEDIVKKLLEAWETGDEDFLIEMADPDTRVEFEAENHHEHRVGWENMIHWTHEVHRHLGVKHLMIDSSTIIGEKVHIDGTMNINGREVKIRIIIEIVDGRVKKIKIIVH            1.71
14  DEEERLWEAAEYFFIHLLQTGDEEMVTKYADPHVRSDVNGVEYHGMNQFVEEWRRLVERIDHLESHHIDRVEIYNGVVTVHLRVHGEVNGKRDTFRVIIFMYKYNGQWRIHSYEFK             1.1
15  SEEEEHWHTLAHMIVHWWLTGDEDAFMELADPHVRFEQGDYESVGMENVRERWRMIKEEIRIHEIRVHDVRFINGVIEVDTRLIRTFNGVREEVDYRVEIVEYNGRVKRVKLEIR            1.33
16  SEEEEIAHRFRKTVVHALLTGDEDRLRELVDPNYRILIGDKELHGWKSMSEFTHEWRIDHVEIERESVFDGVAHHDIRVDTTVNGKRDTRIVRIIIQKVNGKWVIHSMEIH            0.53
17  DEEDEIAEKIMRIILRAFTTGDEETVEKLVDPHARLEFNGRETHGRESWFKLMHHLRIRRMRIHNERIHTQGDFSLSHVRIEFDGEINGKRVEDETRMEIRVIVVNGVVKSVSLSTE            1.35
18  SEDEHKLRTMLELWLEAHRTGDEDLLRKLMDPDVRIHVGDKDFHGWDHEIELFRKELKRLGIDKIDIEVKRIDLQGDKVILEVIVHINGKEIHMIIYANKFNGRWHVKQIEIR            1.35
19  SEEDKEREEWLHLLKHSLETGDEQALSRMADPHVRLVVGDKELHGREDYERHWREFLERFPNVTTEVRLRRVEIYGDKIRIDTELRIHVGDKHHSLRVDLIMVKVDGRWFMKEIRIK            1.21
20  SEDEESFRHIIELMKHSLKTGDWRHLEKLLDPNARVHINGKESHGREEAVKAFRHTWEMLGIDHIEFKDEKIRMQGNKVHVHIDGVINVNGVELKSHFEHHIVKFNGRWHTEKLVIQLD            1.93
21  SEEYENAEKLTHHLTEILQTGDEQKLHELVDPHVKIHVDGVELHGMERYQELVDHWRIDSHTLHDFKIIGDKARVDSRVILTIGDKKERISLRFILVKIDGQWLNHEVEFN            1.79

Hey, just so you know, these numbers are from the NTF2 design screens of Basanta et al. (2020).
